test system: human apolipoprotein B mRNA; assay: Inhibition of human apolipoprotein B mRNA levels in HepG2 cells, quantitative real-time PCR; type: cell-based; conditions: HepG2 cells; human apolipoprotein B mRNA; oligonucleotides targeting genomic sequence SEQ ID NO 334; averages from two experiments
In the oligonucleotide strings, read from the 5' end, every base follows the letter of its sugar. An asterisk marks phosphorothioate; unmarked linkages are phosphodiester. Other units and linkages are bracketed, terminal groups are in braces. A string of capitals states the bases alone. e = 2'-O-(2-methoxyethyl) (MOE); [5mC] = 5-methylcytosine; d = 2'-deoxy (DNA)
EXPERIMENTAL_ENDPOINT: % INHIB (%)
Please respond with the number in % and leave the unit unwritten.

See these solved cases before continuing.
301163 (antisense eG*e[5mC]*eT*eG*eG*dG*d[5mC]*dA*dT*dG*d[5mC]*dT*d[5mC]*dT*d[5mC]*eT*e[5mC]*e[5mC]*e[5mC]*e[5mC]) [compound 301163] = 51
301143 (eT*eT*eA*e[5mC]*e[5mC]*dA*dT*dA*dT*d[5mC]*d[5mC]*dT*dG*dA*dG*eA*eG*eT*eT*eT; antisense) [compound 301143] = 55

The record that follows has no % INHIB shown yet.
Value wanted: % INHIB (human apolipoprotein B mRNA) of entry 301101 (antisense eG*eG*eA*eG*eG*dT*dG*d[5mC]*dT*dA*d[5mC]*dT*dG*dT*dT*eG*eA*e[5mC]*eA*eT) [compound 301101]
42
